# Assay overview: antimalarial activity against Dd2 strain (AID 2302);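 also: 0% = DMSO untreated growth and 100% = chloroquine plus artemisinin killed control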
# Conditions: P. falciparum Dd2 in RBCs, LDH growth readout, 72 h; at 2 µM; stronger effect = higher value
Classification field: enter Condition met for growth inhibition values not below 90%, Condition not met for values below it.

>>> classification("COc1ccc(C(=O)CCC(=O)N(Cc2ccc(-c3ccc(CNCCc4ccc(S(C)(=O)=O)cc4)cn3)cc2)C(C)CN(C)C)cc1F (stereo not drawn)")
"Condition not met"
>>> classification("CN1CCN(CCCN(Cc2ccc(-c3cccc(CNCc4ccc5c(c4)OCO5)c3)cc2)C(=O)Nc2ccccc2)CC1")
"Condition not met"
>>> classification("CN(C)C(C)(C)CN(Cc1ccc(-c2ccc(C(F)(F)F)cc2)cc1)C(=O)Cn1c(CCc2cccc(F)c2F)nc(=O)c2ccccc21")
"Condition not met"
>>> classification("CCOC(=O)c1ccc(-c2c(C(F)(F)F)noc2-c2cc(CC)c(OC)cc2O)o1")
"Condition met"
>>> classification("CS(=O)(=O)N1CC2(CCN(CCC(NC(=S)Nc3ccccc3)c3ccc(Cl)c(Cl)c3)CC2)c2ccccc21 (stereo not drawn)")
"Condition not met"

**Q:** Exam item: decide whether the reported growth inhibition for `CCOc1cc(CC)ccc1C1CCN(CCN2CCC(NC(=O)c3ccc(-c4ccc(C#N)cc4)cc3)CC2)CC1` is at least 90%.
**A:** Condition not met

**Q:** Exam item: decide whether the reported growth inhibition for CC(Nc1ccc2c(c1)CCC2)C(=O)Nc1cc(C(F)(F)F)ccc1N1CCOCC1 (stereo not drawn) is at least 90%.
**A:** Condition met

###

# Assay overview: inhibition of 3D7 malaria parasite growth – strain 3D7 (AID 2306);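 also: 0% = DMSO wells and 100% = chloroquine plus artemisinin control wells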
# Conditions: P. falciparum 3D7 erythrocytic growth, LDH absorbance, 72 h; at 2 µM; stronger effect = higher value
Value kind: growth inhibition (%)
Numbers only, in %.

Known results for compounds:
>>> reading("Oc1ccc(CCNCCCCNCCc2ccc(Cl)cc2)cc1O")
94
>>> reading("Nc1nc2cccc3ccc4cccc1c4c32")
101
>>> reading("CCc1ccc(N2C(N)=NC(N)=NC2(C)C)cc1")
94
>>> reading("COc1ccc(CCNC(C)Cc2ccc(C(=O)Nc3ccc(CC(C)NCCc4cccc(Cl)c4)cc3)cc2)cc1 (stereo not given)")
101

Here are 8 compounds. What values of growth inhibition were reported for them?
1. CC(=O)c1ccc(NC(=O)NNC(=O)c2ccc(CCN3CCC(c4nc(COCC(F)(F)F)c(-c5ccc(F)cc5)o4)CC3)cc2)cc1
2. CC(=O)Nc1cccc(C(=O)Nc2ccc(-c3ccc(-c4nc5c(C)cccc5[nH]4)s3)cc2)c1
3. O=C(c1ccc(OCCn2ccnc2)cc1)N1CCC(c2ccc(Br)cc2)C1 (stereo not given)
4. COc1cc(NC(=O)CCCCCCCN2CCN(C)CC2)c2ncccc2c1
5. CC(C)N1CCC(NC(=O)N2CCCN(c3ncnc4cc(-c5ccccc5)sc34)CC2)CC1
6. O=C(NC1CC1)c1ccc(N2CCCCN2CCc2ccccc2)c(C(F)(F)F)c1
7. C=CCN(c1ccc(OC)cc1)S(=O)(=O)c1ccc(Cl)c(C(=O)Nc2cccc(C#N)c2)c1
8. CCCCCCN1CCN(Cc2cccc(NC(=O)c3cccc(OCC)c3)c2)CC1

**A:**
[96, 93, 100, 95, 87, 98, 96, 85]

Here are 3 compounds. What values of growth inhibition were reported for them?
1. COc1ccc2c(NN=CC=Cc3ccccc3)cc(C)nc2c1
2. O[C@@H](c1cccc(OCc2ccccc2)c1)[C@@H]1CN(CCc2ccccc2)CC[C@@]1(O)c1ccccc1
3. CCOc1ccc2c(NN=Cc3ccccc3OC)cc(C)nc2c1

**A:**
99
98
99

Here are 5 compounds. What values of growth inhibition were reported for them?
1. CC(=O)Nc1cccc(NC(=O)CSc2ccc(-c3nc4ccccc4[nH]3)cn2)c1
2. COc1ccccc1NC(=O)CSc1nc2cccnc2n1-c1ccccc1OC
3. COc1c(C2CCN(CCCCNC(=O)c3oc(-c4ccc(Cl)cc4)cc3CO)CC2)ccc2c1CCCC2
4. CC(=O)Oc1c(C2CCN(CCCCNC(=O)c3ccc(-c4ccc(C#N)cc4)cc3)CC2)ccc2c1CCCC2
5. N#Cc1ccc2c(c1)CCN(CCC1CCC(NC(=O)c3cc4cccc([N+](=O)[O-])c4[nH]3)CC1)C2 (stereo not given)

**A:**
1: 97; 2: 94; 3: 102; 4: 88; 5: 100
